Please respond with reported pEC50 for every item in the list.
studySystem: Insulin receptor (Homo sapiens)
Sequence (P06213 28-758 limits assumed): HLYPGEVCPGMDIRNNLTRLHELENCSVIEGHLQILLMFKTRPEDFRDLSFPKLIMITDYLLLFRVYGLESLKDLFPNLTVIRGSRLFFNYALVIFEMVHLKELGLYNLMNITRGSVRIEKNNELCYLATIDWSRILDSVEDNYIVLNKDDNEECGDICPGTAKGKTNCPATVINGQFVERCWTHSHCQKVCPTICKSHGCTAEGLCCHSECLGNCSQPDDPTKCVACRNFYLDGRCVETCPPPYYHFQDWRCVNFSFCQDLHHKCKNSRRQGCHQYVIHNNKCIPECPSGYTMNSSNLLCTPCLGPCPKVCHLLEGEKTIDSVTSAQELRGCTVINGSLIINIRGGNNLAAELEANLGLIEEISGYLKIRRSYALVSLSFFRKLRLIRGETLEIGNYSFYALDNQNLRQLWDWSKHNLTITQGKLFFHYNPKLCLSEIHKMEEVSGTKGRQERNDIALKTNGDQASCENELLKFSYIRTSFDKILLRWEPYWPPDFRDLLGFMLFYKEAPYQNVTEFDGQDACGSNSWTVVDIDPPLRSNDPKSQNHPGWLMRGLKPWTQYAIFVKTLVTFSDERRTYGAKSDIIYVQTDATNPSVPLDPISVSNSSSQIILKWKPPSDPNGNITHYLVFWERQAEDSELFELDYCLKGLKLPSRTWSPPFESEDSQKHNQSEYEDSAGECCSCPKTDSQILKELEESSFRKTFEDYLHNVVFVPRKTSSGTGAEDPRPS
Sequence (P06213 763-1382 limits assumed): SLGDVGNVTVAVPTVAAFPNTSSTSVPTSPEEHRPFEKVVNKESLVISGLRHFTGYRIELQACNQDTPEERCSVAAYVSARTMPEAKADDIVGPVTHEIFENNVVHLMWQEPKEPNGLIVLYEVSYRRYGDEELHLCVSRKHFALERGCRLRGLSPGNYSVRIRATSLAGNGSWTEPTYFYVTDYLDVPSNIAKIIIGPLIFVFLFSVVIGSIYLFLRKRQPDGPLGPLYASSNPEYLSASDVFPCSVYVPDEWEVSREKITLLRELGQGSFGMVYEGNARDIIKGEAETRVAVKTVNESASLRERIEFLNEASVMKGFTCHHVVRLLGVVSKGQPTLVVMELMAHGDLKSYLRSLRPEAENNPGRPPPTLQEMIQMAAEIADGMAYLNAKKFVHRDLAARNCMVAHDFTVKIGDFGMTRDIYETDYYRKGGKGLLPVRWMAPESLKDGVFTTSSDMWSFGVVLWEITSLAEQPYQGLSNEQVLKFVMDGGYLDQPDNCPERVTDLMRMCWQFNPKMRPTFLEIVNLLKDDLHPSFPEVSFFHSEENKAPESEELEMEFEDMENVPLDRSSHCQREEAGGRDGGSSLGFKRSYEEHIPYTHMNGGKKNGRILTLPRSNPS
experimentNotes: Inhibition of insulin stimulated INSR phosphorylation in human HeLa cells preincubated for 1 hr followed by insulin addition measured after 5 mins by Western blot analysis
Numbers only, as −log10 of the molar value.

// worked examples, pEC50 included
molecule | pEC50
Nc1nc(Nc2ccc(OCCN3CCCC3)cc2)nn1-c1nc(Cl)nc2ccccc12 | 6.62
Cc1nc(-n2nc(Nc3ccc(OCCN4CCCC4)cc3)nc2N)c2ccccc2n1 | 6.49
Nc1nc(Nc2ccc(OCCN3CCCC3)cc2)nn1-c1ncnc2c1sc1ccccc12 | 6.52
COc1cc2ncnc(-n3nc(Nc4ccc(OCCN5CCCC5)c(Cl)c4)nc3N)c2cc1OC | 5.38
COc1cc2ncnc(-n3nc(Nc4ccc(N5CCN(C)CC5)cc4)nc3N)c2cc1OC | 5.34
COc1cc2ncnc(-n3nc(Nc4ccc(C5CCN(C)CC5)cc4)nc3N)c2cc1OC | 5.88
COc1cc2ncnc(-n3nc(Nc4ccc(OC5CCCN(C)C5)cc4)nc3N)c2cc1OC (centres undefined) | 5.74
Cc1csc2c(-n3nc(Nc4ccc(OCCN5CCCC5)cc4)nc3N)nc(Cl)nc12 | 6.24

# context switch: different molecule, same pEC50
Response field pEC50 (Insulin receptor (Homo sapiens)) for item `COc1cc2ncnc(-n3nc(Nc4ccc(N5CC[C@H](N(C)C)C5)cc4)nc3N)c2cc1OC` : 5.32
